- SYSTEM NAME: T1, hTNFRSF12 amino acids a28-80-M50A-hIgG1-Fc (human)
- T1 construct: TWEAKR-Fc mutein, coated on the ELISA plate; also called TPP-1988
- PROTOCOL: ELISA: TWEAKR-Fc construct coated at 62 ng/ml, biotinylated IgG titrated from 100 nM; token + marks IC50 of 1 to […] pM
READOUT KIND: binding result

BINDER | READING
P4A8(TPP-1324) (antibody, human IgG1, kappa, V domains shown, human IgG1; variable domains from WO2009/140177 with a human IgG1 constant region added; biotinylated IgG in the ELISA) VH: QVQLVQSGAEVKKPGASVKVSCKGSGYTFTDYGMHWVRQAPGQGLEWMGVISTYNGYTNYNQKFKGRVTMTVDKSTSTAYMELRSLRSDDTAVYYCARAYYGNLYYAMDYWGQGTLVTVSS VL: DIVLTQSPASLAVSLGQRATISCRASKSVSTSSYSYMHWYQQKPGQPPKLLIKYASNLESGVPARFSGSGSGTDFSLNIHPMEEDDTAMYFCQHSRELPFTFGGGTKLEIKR | binds
136.1(TPP-2194) (antibody, mouse IgG2a, kappa, V domains shown, murine IgG2a; variable domains from WO2009/020933 with a murine IgG2 constant region added; biotinylated IgG in the ELISA) VH: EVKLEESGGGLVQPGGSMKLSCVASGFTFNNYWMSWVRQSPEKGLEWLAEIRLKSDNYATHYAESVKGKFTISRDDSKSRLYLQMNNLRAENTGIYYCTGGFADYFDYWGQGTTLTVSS VL: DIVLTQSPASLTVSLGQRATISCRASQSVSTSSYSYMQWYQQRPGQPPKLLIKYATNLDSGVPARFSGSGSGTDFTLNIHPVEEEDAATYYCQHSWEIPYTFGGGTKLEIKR | binds
P3G5(TPP-2195) (antibody, mouse IgG2a, kappa, V domains shown, murine IgG2a; variable domains from WO2009/140177 with a murine IgG2 constant region added; biotinylated IgG in the ELISA) VH: QVQLQQSGPEVVRPGVSVKISCKGSGYTFTDYGIHWVKQSHAKSLEWIGVISTYNGYTNYNQKFKGKATMTVDKSSSTAYMELARLTSEDSAIYYCARAYYGNLYYAMDYWGQGTSVTVSS VL: DIVLTQSPASLAVSLGQRATISCRANKSVSTSSYSYMHWYQQKPGQPPKLLIKYASNLESGVPARFSGSGSGTDFILNIHPVEEEDAATYYCQHSRELPFTFGSGTKLEIKR | binds
